- TESTED_SYSTEM: T1, 人CD38胞外段Flag标签蛋白 hCD38-ECD-Flag (human, UniProt P28907 43-300)
- T1 construct: range 43-300; No linker between CD38 and the tag is stated; also called hCD38-Flag
- T1 sequence: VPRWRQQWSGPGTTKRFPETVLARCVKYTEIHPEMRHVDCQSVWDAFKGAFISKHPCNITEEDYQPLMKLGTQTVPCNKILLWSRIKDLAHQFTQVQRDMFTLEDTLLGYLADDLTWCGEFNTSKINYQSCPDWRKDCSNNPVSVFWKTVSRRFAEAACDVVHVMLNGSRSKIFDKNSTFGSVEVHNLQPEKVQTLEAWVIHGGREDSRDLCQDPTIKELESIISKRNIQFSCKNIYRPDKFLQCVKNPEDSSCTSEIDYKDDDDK
- ASSAY_EXPLANATION: SPR, Biacore T200; antibody captured on Protein A CM5 chip, hCD38-Flag as analyte
TEST_READOUT: kon (M⁻¹ s⁻¹)

BINDER | RECORDED_RESULT
人源化抗人CD38单克隆抗体105H (antibody, human IgG1, kappa, V domains shown, Humanized IgG1; also called 105-Humanization; 105号抗体的人源化抗体) VH: QVQLVQSGAEVKKPGASVKVSCKASGYTFTSYWMHWVRQAPGQGLEWIGHINPSSGYSEYSQKFKDRATLTADKSTSTAYMELSSLRSEDTAVYYCEIYYYVSRYVGDSWGQGTLVTVSS VL: DIQMTQSPSSLSASVGDRVTITCRASQEISGYLSWLQQKPGKTIKRLIYAASTLDSGVPSRFSGSRSGSDFTLTISSLQPEDFATYYCLQYDSYPLTFGQGTKVEIKR | 29800
